Tested on: L6 rat myotubes
RUN_DESCRIPTION: Protein degradation, release of acid-soluble [3H]-phenylalanine
Format: cell-based
RUN_PARAMETERS: 10 μM, 4 h
OBSERVATION_TYPE: Protein degradation (% decrease over control)
Don't forget the unit after the number, please.

Example cases with answers are listed next.
CC(C)C(C)C(O)C(O)C(C)C1CCC2C3COC(=O)C4CC(O)C(O)CC4(C)C3CCC12C (stereo not drawn) [Compound 9]; −6.7 ± 7.9%
CC[C@@H](C(C)C)[C@H](O)[C@@H](O)[C@@H](C)[C@H]1CC[C@H]2[C@@H]3COC(=O)[C@H]4C[C@H](F)CC[C@]4(C)[C@H]3CC[C@]12C [Compound 3]; −20.8 ± 0.5 %
CC[C@@H](C(C)C)[C@@H](O)[C@H](O)[C@@H](C)[C@H]1CC[C@H]2[C@@H]3COC(=O)[C@H]4C[C@H](O)[C@H](O)C[C@]4(C)[C@H]3CC[C@]12C [Compound 7]; −14.8 ± 3.8%
CC(C)[C@H](C)[C@H](O)[C@@H](O)[C@@H](C)[C@H]1CC[C@H]2[C@@H]3COC(=O)[C@H]4C[C@@H](O)[C@H](O)C[C@]4(C)[C@H]3CC[C@]12C [Compound 8]; −5.4 ± 7.9%
CC[C@@H](C(C)C)[C@H](O)[C@@H](O)[C@@H](C)[C@H]1CC[C@H]2[C@@H]3CC(=O)N[C@H]4C[C@H](O)[C@H](O)C[C@]4(C)[C@H]3CC[C@]12C [Compound 5]; −13.6 ± 3.8%
CC[C@@H](C(C)C)[C@H](O)[C@@H](O)[C@@H](C)[C@H]1CC[C@H]2[C@@H]3CC(=O)[C@H]4C[C@H](O)[C@H](O)C[C@]4(C)[C@H]3CC[C@]12C [Compound 2]; −23.1 ± 4.2 %
CC[C@@H](C(C)C)[C@H](O)[C@@H](O)[C@@H](C)[C@H]1CC[C@H]2[C@@H]3CC(=O)[C@H]4C[C@H](F)CC[C@]4(C)[C@H]3CC[C@]12C [Compound 4]; −16.3 ± 4.2%
CC[C@@H](C(C)C)[C@H](O)[C@@H](O)[C@@H](C)[C@H]1CC[C@H]2[C@@H]3CNC(=O)[C@H]4C[C@H](O)[C@H](O)C[C@]4(C)[C@H]3CC[C@]12C [Compound 6]; −0.6 ± 2.9%

Then there is this compound:
Q: Find the recorded Protein degradation (% decrease over control) belonging to CC[C@@H](C(C)C)[C@H](O)[C@@H](O)[C@@H](C)[C@H]1CC[C@H]2[C@@H]3COC(=O)[C@H]4C[C@H](O)[C@H](O)C[C@]4(C)[C@H]3CC[C@]12C [Compound 1] and report it.
Ans: −24.1 ± 5.5 %
